// provenance: PubChem BioAssay

# test_details: viability loss with induced miR-34 in A549 – imaging, A549 dox-inducible miR-34, nuclei and caspase counts, primary screen (AID 1347080)
# condition_set: A549 miR-34 inducible, Hoechst nuclei count, 48 h; measured here: total cells with miR-34 induction; stronger effect = lower value
Please provide measured cell count for the entries that follow.
Numbers only.

Cc1cc(NC2CCCCC2)nc(-n2nc(C)cc2C)n1
9360
Cc1cccc(C2CN(C)CCc3c2cc(O)c(O)c3Cl)c1 (stereo not drawn)
6330
CC1(C)O[C@H]2CC(=O)OC[C@]23[C@H]2CC[C@@]4(C)C(c5ccoc5)OC(=O)C5O[C@]54[C@@]2(C)C(=O)C[C@@H]13 (stereo partly drawn)
8580
CCCCCCCCCCCCCCC[C@H](O)[C@H](N)CO
1060

Please look at the items below and tell me cell count for each one, in order.
1. CCCCCCCCCCCCCCC[C@@H](O)[C@@H](N)CO
2. CN1CC[C@H](c2c(O)cc(O)c3c(=O)cc(-c4ccccc4Cl)oc23)C(O)C1 (stereo partly drawn)
3. Cc1ccc(-c2c(-c3nn(C)c4ncnc(N5CCC(N6CCCCC6)C5)c34)cnn2C)cc1 (stereo not drawn)

Reply:
[5120, 1600, 8040]

Please look at the items below and tell me cell count for each one, in order.
1. N.N.N.N.N.N.N.N.N.N.N.N.N.N.O.O.[Cl-].[Cl-].[Cl-].[Cl-].[Cl-].[Cl-].[Ru+4].[Ru+5].[Ru+5]
2. O=c1c2nccnc2ncn1Cc1ccc2nsnc2c1
3. CC(=O)C1CC[C@H]2[C@@H]3CC=C4CC(O)CC[C@]4(C)[C@@H]3CC[C@]12C (stereo partly drawn)
4. O=C1NCc2c1c1c3ccccc3[nH]c1c1[nH]c3ccccc3c21

Reply:
1: 10700; 2: 8120; 3: 7780; 4: 1560

* * *

# test_details: viability loss with induced miR-34 in A549 – imaging, A549 dox-inducible miR-34, nuclei and caspase counts, primary screen (AID 1347080)
# condition_set: A549 miR-34 inducible, Hoechst nuclei count, 48 h; measured here: relative caspase fold change +Dox/-Dox
Classify by measured fold change: YES if it is equal to or exceeds 0.9, NO if it is smaller.

Please review the entries below; each comes with its answer.
Brc1ccc(C2CN3CCSC3=N2)cc1 (stereo unspecified)
NO
CCCCCCCC/C=C\CCCCCCCC(=O)OCC(CO)OC(=O)CCCCCCC/C=C\CCCCCCCC (stereo unspecified)
YES
CNC(=C[N+](=O)[O-])NCCSCc1ccc(CN(C)C)o1
NO
C[N+]1(C)C[C@@H](O)C[C@H]1C(=O)[O-]
YES
CCSc1ccc2c(c1)N(CCCN1CCN(C)CC1)c1ccccc1S2
NO

Ask: Form field: fold change at least 0.9? Entry: CN1CCN(Cc2ccc3sccc3c2)CC1CCO (stereo unspecified)
Reply: YES

Ask: Form field: fold change at least 0.9? Entry: O=C1NCCN1c1ncc([N+](=O)[O-])s1
Reply: YES

* * *

# test_details: drug combination growth inhibition, ovarian cancer – cell-based, oncology-focused library, rucaparib conditional, profiling panel (AID 1508598)
# condition_set: patient-derived ovarian cancer cells, CellTiter-Glo viability, 144 h; at 0.0781 µM; OCI-P5x cells; without rucaparib; stronger effect = lower value
Checkbox rule: viability lower than 90% = rule met; viability not lower than 90% = rule not met.

Ask: I'd appreciate it if you could check whether CC1=C(/C=C/C(C)=C\C=C\C(C)=C/C(=O)O)C(C)(C)CCC1 has viability smaller than 90%.
Reply: rule not met

Ask: I'd appreciate it if you could check whether CO[C@H]1C[C@@H]2CC[C@@H](C)[C@@](O)(O2)C(=O)C(=O)N2CCCC[C@H]2C(=O)O[C@H]([C@@H](C)C[C@@H]2CC[C@@H](OCCO)[C@H](OC)C2)CC(=O)[C@H](C)/C=C(\C)[C@H](O)[C@@H](OC)C(=O)[C@H](C)C[C@H](C)/C=C/C=C/C=C/1C has viability smaller than 90%.
Reply: rule met

Ask: I'd appreciate it if you could check whether NC(=O)CCCSc1nc(N)nc(-c2c(Cl)cc3c4c(cccc24)COC3)n1 has viability smaller than 90%.
Reply: rule met

Ask: I'd appreciate it if you could check whether C[C@]12CC[C@H]3c4ccc(O)cc4CC[C@H]3[C@@H]1CC[C@H]2O has viability smaller than 90%.
Reply: rule not met

Ask: I'd appreciate it if you could check whether COC1=C2C[C@H](C)C[C@@H](OC)[C@H](O)[C@H](C)/C=C(\C)[C@H](OC(N)=O)[C@@H](OC)/C=C/C=C(\C)C(=O)NC(=CC1=O)C2=O has viability smaller than 90%.
Reply: rule met

Ask: I'd appreciate it if you could check whether CC(=O)O[C@@]1(C(C)=O)CC[C@H]2[C@@H]3C[C@H](C)C4=CC(=O)CC[C@]4(C)[C@@H]3CC[C@@]21C has viability smaller than 90%.
Reply: rule not met
